molecular target: GPR17 (Homo sapiens); assay: cAMP accumulation functional assay (HTRF) in CHO hGPR17 cells; assay type: cell-based; design: host or cells: Flp-In T-REx CHO cells, expression induced with doxycycline; conditions: Schild analysis against MDL29,951, 5 μM forskolin, activity range, read-out: cAMP assay pA2 (converted)
Sequence (Q13304 29-367 limits assumed): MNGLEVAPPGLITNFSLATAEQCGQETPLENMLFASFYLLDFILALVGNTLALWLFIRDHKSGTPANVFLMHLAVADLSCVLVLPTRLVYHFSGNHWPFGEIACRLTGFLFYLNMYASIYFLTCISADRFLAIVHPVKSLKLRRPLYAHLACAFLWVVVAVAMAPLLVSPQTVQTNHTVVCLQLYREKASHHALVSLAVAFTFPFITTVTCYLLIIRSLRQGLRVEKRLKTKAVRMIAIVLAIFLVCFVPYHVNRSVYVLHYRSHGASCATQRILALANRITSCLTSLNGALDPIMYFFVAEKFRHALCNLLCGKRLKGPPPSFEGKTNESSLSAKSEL
readout label: Kb

As a guide, the following entries are already answered.
molecule	Kb
COc1ccc(NS(=O)(=O)c2c[nH]c3cc(Cl)ccc23)cn1 [Example I-15]	0.0316 to 0.316 µM
COc1nc(OCC(F)F)c(F)cc1NS(=O)(=O)c1c[nH]c2nc(C(F)F)ccc12 [Example I-54]	≤ 0.00316 µM
COc1nc(OCCOC(F)F)c(F)cc1NS(=O)(=O)c1c[nH]c2nc(C(F)F)ccc12 [Example I-58]	≤ 0.00316 µM
COc1nc(Cl)c(F)cc1NS(=O)(=O)c1c[nH]c2nc(C(F)F)ccc12 [Example I-29]	0.00316 to 0.0316 µM
COc1nc(OCC(F)F)ccc1NS(=O)(=O)c1c[nH]c2nc(Cl)ccc12 [Example I-45]	0.00316 to 0.0316 µM

Could you share which Kb value was measured for COc1nc(OC(F)F)c(F)cc1NS(=O)(=O)c1c[nH]c2nc(Cl)ccc12 [Example I-22] ? ≤ 0.00316 µM

Could you share which Kb value was measured for COc1ccc(NS(=O)(=O)c2c[nH]c3cc(Cl)ccc23)c(OC)n1 [Example I-61] ? 0.0316 to 0.316 µM

Could you share which Kb value was measured for COc1nc(Cl)c(F)cc1NS(=O)(=O)c1c[nH]c2nc(Cl)ccc12 [Example I-32] ? ≤ 0.00316 µM
